// koff lookup, one value per entry
Tested on: T1, cynomolgus SIRP-α D1 domain (cyno2) (cynomolgus monkey, UniProt Q5TFQ8 30-148 (human entry), limits assumed)
T1 chain: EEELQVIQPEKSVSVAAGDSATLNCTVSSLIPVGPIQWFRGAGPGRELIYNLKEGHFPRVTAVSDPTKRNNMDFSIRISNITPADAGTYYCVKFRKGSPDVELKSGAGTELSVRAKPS
Experimental details: SPR, Langmuir fit
Measured endpoint: koff (s⁻¹)

[[record]]
binder = "S163 (scFv, V domains shown) VH: DVQLVESGGGLVRPGESLRLSCAASGFTFTNYAVTWVRQAPGEGLEWVSLISVTGTTYYADSVKGRFTISRDNSKSTLYLQMNGLRAEDTAVYYCAKVTWKNVFDYWGLGTLVTVSS VL: EIVLTQSPGTLSVSPGERATFSCRASQTVGSKLAWYQQKPGQAPRLLIYDANTRATGIPARFSGSGSGTEFTLTISSLQSEDFAVYYCQQHTDWPPYTFGGGTKVEIK"
measured_endpoint = "koff"
recorded_number = 0.000242

[[record]]
binder = "S132 (scFv, V domains shown) VH: DVQLVESGGGVVRPGESLRLSCAASGFSFRSYAMNWVRQAPGEGLEWVSRINSGGGGTDYADSVKGRFTISRDNSKNTLYLQMNSLRAEDTAVYYCAKQYDWNSFFDYWGLGALVTVSS VL: ETVLTQSPATLSVSPGERATLSCRASQTVGSKLAWHQQKPGQAPRLLIYDASNRATGIPDRFSGSGSGTDFTLTISSPQTEDSAVYYCQQYYYWPPYRFGGGTKVEIK"
measured_endpoint = "koff"
recorded_number = "7.12e-05"

[[record]]
binder = "S59 (scFv, V domains shown, also called clone 59) VH: DVQLVESGGGVVRPGESLRLSCAVSGFRFSSHAMSWVRQAPGKGLEWVSGISSGGDTYYVDSVKGRFTISRDNSKNTLYLQVNSLTAEDTAIYYCARETWNHLFDYWGLGTLVTVSS VL: ALTQPASVSANLGETVKITCSGGDSSSHYYGWYQQKSPGSAPVTVIYSDDERPSDIPSRFSGSASGSTATLTITGVRVEDEAIYYCGAYDGSTYANTFGAGTTLTVL"
measured_endpoint = "koff"
recorded_number = 0.000113

[[record]]
binder = "S202 (scFv, V domains shown) VH: DVQLVESGGGVVRPGESLRLSCAASGFTFSSYAMSWVRQAPGKGLEWLAGISAGGSDTYYIDSVKGRFTISRDNSKNSLYLQMNSLTAEDTAVYYCARETWNHLFDYWGLGTLVTVSS VL: ALTQPASVSANPGETVKITCSGGGYYSTYYGWYQQRSPGSAPVTVIHSDDKRPSDIPSRFSGSASGSAATLTITGVRVEDEAVYYCAGYDGRTYLNTFGAGTTLTVL"
measured_endpoint = "koff"
recorded_number = 0.00012

[[record]]
binder = "S26 (scFv, V domains shown, also called clone 26) VH: DVQLVESGGGVVRPGESLRLSCAASGFTFSTYAMSWVRQAPGKGLEWVSGISASGSGTYYGDSVKGRFTMSRDNSKNTLYLQMNSLTAEDTAVYYCARETWNHLFDYWGLGTLVTVSS VL: ALTQPASVSANLGGTVEITCSGGSSSYYGWYQQKSPGSAPVTVIYSDNQRPSDIPSRFSGSASDSTATLTITGVQVEDEAIYYCGGYDSSTYANTFGAGTTLTVL"
measured_endpoint = "koff"
recorded_number = 0.000743

